read-out: UDP glucuronosyltransferase (UGT1A6), UGT1A6 (gene 54578); assay: LTEA_HepaRG_UGT1A6: Life Technologies and Expression Analysis (LTEA) Assay for UDP glucuronosyltransferase (UGT1A6) using HepaRG (AID 2283539); details: mRNA level, 48 h; actives raise or lower the signal
Active and inactive are the calls of the source. The calls were made as follows: active = hit-call score of the fitted dose curve at least 0.9, where 1 is the maximum; inactive = score below 0.9.
Possible outcomes: active, inactive

{"COMPOUND": "COC(=O)N(OC)c1ccccc1COc1ccn(-c2ccc(Cl)cc2)n1", "ASSIGNED CATEGORY": "active"}
{"COMPOUND": "N#Cc1cc(Br)c(O)c(Br)c1", "ASSIGNED CATEGORY": "active"}
{"COMPOUND": "Oc1ccccc1-c1ccccc1", "ASSIGNED CATEGORY": "inactive"}
{"COMPOUND": "COC(=O)C(C)Oc1ccc(Oc2ccc(Cl)cc2Cl)cc1 (centres undefined)", "ASSIGNED CATEGORY": "inactive"}

----------
read-out: X-box binding protein 1 (XBP1), XBP1 (gene 7494); experiment: LTEA_HepaRG_XBP1: Life Technologies and Expression Analysis (LTEA) Assay for X-box binding protein 1 (XBP1) using HepaRG (AID 2283540); conditions: mRNA level, 48 h; actives raise or lower the signal
Calls of active or inactive are those of the source. Rule for the calls: active = hit-call score of the fitted dose curve at least 0.9, where 1 is the maximum; inactive = score below 0.9.
Possible outcomes: YES = active, NO = inactive

{"MOLECULE": "CCNc1nc(Cl)nc(NC(C)C)n1", "ASSIGNED CATEGORY": "NO"}
{"MOLECULE": "CCON=C(CC)C1=C(O)CC(c2c(C)cc(C)cc2C)CC1=O (stereo not given)", "ASSIGNED CATEGORY": "NO"}
{"MOLECULE": "CCc1nn(C)c(C(=O)NCc2ccc(C(C)(C)C)cc2)c1Cl", "ASSIGNED CATEGORY": "YES"}
{"MOLECULE": "COC(=O)C=C(C)OP(=O)(OC)OC", "ASSIGNED CATEGORY": "NO"}
{"MOLECULE": "CCCCNC(=O)OCC#CI", "ASSIGNED CATEGORY": "YES"}

----------
read-out: ATP-citrate lyase (ACLY), ACLY (gene 47); assay: LTEA_HepaRG_ACLY: Life Technologies and Expression Analysis (LTEA) Assay for ATP-citrate lyase (ACLY) using HepaRG (AID 2283466); conditions: mRNA level, 48 h; actives raise or lower the signal
Calls of active or inactive are those of the source. The calls were made as follows: active = hit-call score of the fitted dose curve at least 0.9, where 1 is the maximum; inactive = score below 0.9.
Possible outcomes: true (1) = active, false (0) = inactive

{"COMPOUND": "O=C(O)c1nc(Cl)ccc1Cl", "ASSIGNED CATEGORY": "false (0)"}
{"COMPOUND": "CCCCC(CC)COC(=O)c1ccccc1C(=O)OCC(CC)CCCC (stereo unspecified)", "ASSIGNED CATEGORY": "false (0)"}
{"COMPOUND": "CC(C)Oc1cc(-n2nc(C(C)(C)C)oc2=O)c(Cl)cc1Cl", "ASSIGNED CATEGORY": "true (1)"}
{"COMPOUND": "CCNc1nc(Cl)nc(NC(C)C)n1", "ASSIGNED CATEGORY": "false (0)"}
{"COMPOUND": "COc1ccc(C(c2ccc(OC)cc2)C(Cl)(Cl)Cl)cc1", "ASSIGNED CATEGORY": "false (0)"}
{"COMPOUND": "C#CCOS(=O)OC1CCCCC1Oc1ccc(C(C)(C)C)cc1 (stereo unspecified)", "ASSIGNED CATEGORY": "true (1)"}
{"COMPOUND": "CON(C)C(=O)Nc1ccc(Cl)c(Cl)c1", "ASSIGNED CATEGORY": "false (0)"}
{"COMPOUND": "CCOC(=O)CC(SP(=S)(OC)OC)C(=O)OCC (stereo unspecified)", "ASSIGNED CATEGORY": "false (0)"}
{"COMPOUND": "CN(C)C(=S)SSC(=S)N(C)C", "ASSIGNED CATEGORY": "false (0)"}
{"COMPOUND": "COC(=O)C=C(C)OP(=O)(OC)OC", "ASSIGNED CATEGORY": "false (0)"}
{"COMPOUND": "CCCCNC(=O)OCC#CI", "ASSIGNED CATEGORY": "false (0)"}
